B1: AUP1 (parent)
chain: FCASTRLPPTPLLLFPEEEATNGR

variants of: B1; assay: protein stability index of a GFP-peptide fusion (GPS, HEK-293T) (PSI 1-6); higher = more stable; details: c terminus: a fixed tail appended;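 also: lentivirally expressed fusions sorted by FACS into six bins by GFP to DsRed ratio, PSI derived from sequencing read proportions per bin multiplied by bin number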
Each item that follows carries a reported protein stability index.
Answer with a bare number; do not write a unit.

{"Variant label": "R6I", "protein stability index": 2.46}

Problem: Requested field: protein stability index. Item: `E17C`
Result: 1.52

Problem: Requested field: protein stability index. Item: `T21S`
Result: 2.52

Problem: Requested field: protein stability index. Item: `C2H`
Result: 2.17

Problem: Requested field: protein stability index. Item: `N22M`
Result: 2.56

Problem: Requested field: protein stability index. Item: `P16D`
Result: 3.05
